assay: chemical genetic growth profiling, strain panel (AID 1159580);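 also: tested at 20 µM; growth read once vehicle control cultures reached saturation at 30 °C; 1 = growth at the plate median or of vehicle wells; lower values mean less growth of the strain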; conditions: S. cerevisiae deletion strains, growth OD, locus YOR184W, strain ser1
The campaign covered roughly 5,500 compounds. About 2,000 (36%) were called active. About 18% were inconclusive and are not listed. Rule as the data show it: active = normalized growth mostly below about 0.91 (no sharp cut-off); inconclusive = no clear call, values can overlap the other calls; inactive = mostly above about 0.92. This is one part of the list.
Select the matching outcome among 1 (active), 0 (inactive)

Answered cases to consult:
COc1ccc2c(c1O)OCC1c3cc4c(cc3OC21)OCO4 (stereo not given) : 0
Oc1ccc2c(c1)OCC1c3cc4c(cc3OC21)OCO4 (stereo not given) : 1
COc1ccc([C@H]2Oc3cc(OC)cc(OC)c3C[C@H]2O)cc1 : 0
O=C1OC(c2ccc(O)cc2)(c2ccc(O)cc2)c2ccccc21 : 0

Here's the next entry for you.
Just curious, what result did "O=C(O)CN(CC(=O)O)Cc1cc2c(-c3ccccc3C(=O)O)c3cc(CN(CC(=O)O)CC(=O)O)c(=O)cc-3oc2cc1O" get here?
0

This collection of values is drawn from PubChem BioAssay AID1159580.
